Source of measurements: patent US11066369B2

Target: delF508-CFTR (Homo sapiens, UniProt P13569, DEL508-508)
Construct: functional activity of the CFTR channel (Chloride ion transport) in patient derived primary human bronchial epithelial cells; host or cells: patient-derived primary human bronchial epithelial cells (delF508-CFTR)
Sequence (P13569 with tags, fused parts or gaps DEL508-508): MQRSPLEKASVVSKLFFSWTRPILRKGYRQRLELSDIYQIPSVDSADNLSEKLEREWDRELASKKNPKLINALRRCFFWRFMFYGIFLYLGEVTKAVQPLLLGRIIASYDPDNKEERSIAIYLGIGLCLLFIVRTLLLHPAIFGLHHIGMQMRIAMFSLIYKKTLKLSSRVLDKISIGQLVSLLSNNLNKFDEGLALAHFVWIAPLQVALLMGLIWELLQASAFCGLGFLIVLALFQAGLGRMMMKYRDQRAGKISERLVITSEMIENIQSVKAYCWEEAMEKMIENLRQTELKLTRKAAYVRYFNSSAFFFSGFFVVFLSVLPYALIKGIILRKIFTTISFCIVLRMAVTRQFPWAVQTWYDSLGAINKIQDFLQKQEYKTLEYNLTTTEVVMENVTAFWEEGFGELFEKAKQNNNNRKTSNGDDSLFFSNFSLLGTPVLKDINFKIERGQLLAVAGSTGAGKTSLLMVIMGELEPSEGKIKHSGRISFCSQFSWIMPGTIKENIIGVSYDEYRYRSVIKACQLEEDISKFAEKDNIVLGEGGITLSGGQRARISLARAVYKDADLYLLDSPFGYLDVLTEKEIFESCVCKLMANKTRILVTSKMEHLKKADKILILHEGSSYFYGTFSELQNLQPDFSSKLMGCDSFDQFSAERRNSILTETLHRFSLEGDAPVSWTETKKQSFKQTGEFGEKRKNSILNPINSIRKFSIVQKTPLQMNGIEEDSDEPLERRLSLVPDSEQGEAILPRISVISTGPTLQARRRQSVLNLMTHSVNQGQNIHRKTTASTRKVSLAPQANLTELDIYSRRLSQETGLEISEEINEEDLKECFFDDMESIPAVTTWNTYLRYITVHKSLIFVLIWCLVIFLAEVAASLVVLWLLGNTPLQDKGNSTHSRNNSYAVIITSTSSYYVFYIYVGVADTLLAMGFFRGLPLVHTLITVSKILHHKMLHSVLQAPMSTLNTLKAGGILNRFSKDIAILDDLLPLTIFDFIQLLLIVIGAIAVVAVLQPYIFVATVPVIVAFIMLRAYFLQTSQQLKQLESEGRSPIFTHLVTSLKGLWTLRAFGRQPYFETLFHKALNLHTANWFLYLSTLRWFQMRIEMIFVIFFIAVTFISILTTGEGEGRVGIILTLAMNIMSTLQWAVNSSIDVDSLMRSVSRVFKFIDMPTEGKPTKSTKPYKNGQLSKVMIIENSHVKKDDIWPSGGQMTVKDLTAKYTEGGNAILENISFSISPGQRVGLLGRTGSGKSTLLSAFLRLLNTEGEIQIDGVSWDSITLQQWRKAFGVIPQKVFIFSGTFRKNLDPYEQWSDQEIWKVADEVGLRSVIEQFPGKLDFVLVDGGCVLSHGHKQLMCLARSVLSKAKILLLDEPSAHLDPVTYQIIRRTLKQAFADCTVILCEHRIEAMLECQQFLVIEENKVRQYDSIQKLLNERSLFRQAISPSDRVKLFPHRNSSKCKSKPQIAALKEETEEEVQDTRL
Assay: Measurement of delF508-CFTR functional activity in primary human bronchial epithelial cells (HBECs) using Multi-Transepithelial Clamp Circuit (MTECC-24) assay
Format: cell-based
Settings: primary CF HBECs; test compound added 24h before assay plus potentiator; relative to reference combination (2 μM corrector + 0.5 μM potentiator)
Counter-ions that a name gives are not always drawn.
I'd appreciate it if you could supply MTECC24 CFHBEC- Amax % values for the items below.
Answers are plain numbers, in %.

Could I get MTECC24 CFHBEC- Amax % for every one of these entries?
1. O=C(O)[C@H]1CCCN(c2cccc(S(=O)(=O)Nc3ccc(C(F)(F)F)c(-c4ccccc4C4CCC4)n3)n2)C1
2. Cc1c(C#N)cccc1-c1nc(NS(=O)(=O)c2cccc(N3CC(C)(O)C3)n2)ccc1Cl
3. Cc1c(F)cccc1-c1nc(NS(=O)(=O)c2ccnc(N3CCOC[C@H]3C)c2)ccc1Cl

## Output
91.2
75.6
67.1

## Input // returns reported MTECC24 CFHBEC- Amax % for input Cc1ccccc1-c1nc(NS(=O)(=O)c2cccc(N3CC[C@@H](N)C3)n2)ccc1C(F)(F)F [Example 119, Hydrochloride]
## Output 70.2

====

Target: delF508-CFTR (Homo sapiens, UniProt P13569, DEL508-508)
Construct: functional activity of the CFTR channel (Chloride ion transport) in patient derived primary human bronchial epithelial cells
Test: Measurement of delF508-CFTR functional activity in primary human bronchial epithelial cells (HBECs) using Multi-Transepithelial Clamp Circuit (MTECC-24) assay
Details: primary CF HBECs; test compound added 24h before assay, in the presence of potentiator; mean of at least two replicates; read-out: MTECC24 CFHBEC- EC50
pEC50: −log10 of the molar value. Structures can show the parent of a compound that is named as a salt.
Short version: pEC50 at least 7 is 1.0, less is 0.0.

Solved entries:
compound="Cc1c(F)cccc1-c1nc(NS(=O)(=O)c2cccc(N3CCCC(C)(C(=O)O)C3)n2)ccc1C(F)(F)F (stereo not shown) [Example 362]" system="delF508-CFTR (Homo sapiens, UniProt P13569, DEL508-508)" label_class=1.0
compound="CC1(C(=O)O)CCN(c2cccc(S(=O)(=O)Nc3ccc(Cl)c(-c4cccc(F)c4Cl)n3)n2)CC1 [Example 245]" system="delF508-CFTR (Homo sapiens, UniProt P13569, DEL508-508)" label_class=1.0
compound="Cc1cccc(C)c1-c1nc(NS(=O)(=O)c2cccc(N3CCC(C)(C(=O)O)CC3)n2)ccc1C(F)(F)F [Example 265]" system="delF508-CFTR (Homo sapiens, UniProt P13569, DEL508-508)" label_class=1.0

## Input Could you verify whether the entry Cc1ccccc1-c1nc(NS(=O)(=O)c2cccc(O[C@@H]3COC[C@@H]3O)n2)ccc1C(F)(F)F (single isomer, unassigned) [Example 296] shows pEC50 of no less than 7?
## Output 1.0

## Input Now consider Cc1ccccc1-c1nc(NS(=O)(=O)c2cccc(N3CCNCC3)n2)ccc1Cl [Example 195, hydrochloride] and answer again.
## Output 0.0

====

Target: delF508-CFTR (Homo sapiens, UniProt P13569, DEL508-508)
Construct: functional activity of the CFTR channel (Chloride ion transport) in patient derived primary human bronchial epithelial cells
Experiment: Measurement of delF508-CFTR functional activity in primary human bronchial epithelial cells (HBECs) using Multi-Transepithelial Clamp Circuit (MTECC-24) assay
Conditions: primary CF HBECs; test compound added 24h before assay, in the presence of potentiator; mean of at least two replicates; read-out: MTECC24 CFHBEC- EC50
Where a name gives a salt, the structure may show the parent alone.
ENDPOINT_NAME: pEC50
Numbers only, as −log10 of the molar value.

Please review the entries below; each comes with its answer.
compound=Cc1cccc(C)c1-c1nc(NS(=O)(=O)c2ccnc(N)c2)ccc1C(F)(F)F assay_value=7.84
compound=Cc1c(F)cccc1-c1nc(NS(=O)(=O)c2ccnc(N3CCOC[C@H]3C)c2)ccc1Cl assay_value=7.60

Could I get pEC50 for every one of these entries?
1. Cc1ccccc1-c1nc(NS(=O)(=O)c2cccc(N[C@H]3CCOC[C@H]3O)n2)ccc1C(F)(F)F (single isomer, unassigned)
2. Cc1ccc(F)cc1-c1nc(NS(=O)(=O)c2cccc(N[C@@H]3COC[C@H]3O)n2)ccc1Cl
3. Cc1ccc(F)cc1-c1nc(NS(=O)(=O)c2cccc(N3CCN[C@@H](CO)C3)n2)ccc1C(F)(F)F [Example 174, Hydrochloride]
4. Cc1ccc(F)cc1-c1nc(NS(=O)(=O)c2cccc(N3CCN[C@H](C)C3)n2)ccc1C(F)(F)F [Example 176, Hydrochloride]
5. CCc1ccccc1-c1nc(NS(=O)(=O)c2cccc(N3CCCC(C)(C(=O)O)C3)n2)ccc1C(F)(F)F (stereo not shown)

## Output
1: 8.34; 2: 7.80; 3: 6.68; 4: 6.65; 5: 8.71

====

Biological target: horseradish peroxidase (HRP) tagged delF508-CFTR (Homo sapiens, UniProt P13569, DEL508-508)
Construct: expressed in transfected cells
Sequence (P13569 with tags, fused parts or gaps DEL508-508): as above
Assay: Measurement of delF508-CFTR-HRP surface expression in CFBE41o- cells;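 on DelF508-CFTR-HRP Amax %: percent efficacy relative to reference corrector lumacaftor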
Type: cell-based
Details: CFBE41o- cells; surface expression Amax; read-out: DelF508-CFTR-HRP Amax %
ENDPOINT_NAME: Emax (%)
One number for each entry, in %.

Please review the entries below; each comes with its answer.
compound="CC1(C(=O)O)CCCN(c2cccc(S(=O)(=O)Nc3ccc(C(F)(F)F)c(-c4ccccc4CO)n3)n2)C1 (stereo not shown)" endpoint_name=Emax measurement_unit=% assay_value=47.5
compound="CC1(C(=O)O)CCCN(c2cccc(S(=O)(=O)Nc3ccc(Cl)c(-c4ccccc4C4CCC4)n3)n2)C1 (stereo not shown)" endpoint_name=Emax measurement_unit=% assay_value=749
compound=C[C@@]1(C(=O)O)CCCN(c2cccc(S(=O)(=O)Nc3ccc(Cl)c(-c4ccccc4C4CC4)n3)n2)C1 endpoint_name=Emax measurement_unit=% assay_value=869

Next:
## Input // returns reported Emax for input CC(C)Oc1ccc(Cl)cc1-c1nc(NS(=O)(=O)c2cccc(N3CCCC(C)(C(=O)O)C3)n2)ccc1C(F)(F)F (stereo not shown)
## Output 571

====

Biological target: horseradish peroxidase (HRP) tagged delF508-CFTR (Homo sapiens, UniProt P13569, DEL508-508)
Construct: expressed in transfected cells
Test: Measurement of delF508-CFTR-HRP surface expression in CFBE41o- cells
Assay type: cell-based
Settings: delF508-CFTR-HRP surface expression, CFBE41o- cells; read-out: DelF508-CFTR-HRP EC50
ENDPOINT_NAME: EC50 (nM)
One number for each entry, in nM.

Please review the entries below; each comes with its answer.
molecule="Cc1cccc(C)c1-c1nc(NS(=O)(=O)c2cccc(O[C@H]3CC[C@@H](C(=O)O)CC3)n2)ccc1Cl [Example 129]" assay_value=1720
molecule="Cc1cccc(C)c1-c1cc(Cl)cc(NS(=O)(=O)c2cccc(N)n2)n1 [Example 10]" assay_value=1530
molecule="COc1ccc(F)cc1-c1nc(NS(=O)(=O)c2cccc(N3CCN(C(C)(C)C)CC3)n2)ccc1C(F)(F)F [Example 149]" assay_value=1750

Could I get EC50 for every one of these entries?
1. Nc1cccc(S(=O)(=O)Nc2ccc(Cl)c(-c3ccccc3F)n2)n1 [Example 69]
2. Cc1ccccc1-c1nc(NS(=O)(=O)c2cccc(N3CC[C@H](O)[C@H]3C)n2)ccc1C(F)(F)F [Example 314]
3. COc1ccc(F)cc1-c1nc(NS(=O)(=O)c2cccc(N)n2)ccc1Cl [Example 62]
4. Cc1ccccc1-c1nc(NS(=O)(=O)c2cccc(N3CCN(C(N)=O)CC3)n2)ccc1C(F)(F)F [Example 184]
5. Cc1ccccc1-c1nc(NS(=O)(=O)c2cccc(N)n2)ccc1C [Example 75]

## Output
3300
1590
1730
835
2840

====

I'd appreciate it if you could supply EC50 values for the items below.
Target: horseradish peroxidase (HRP) tagged delF508-CFTR (Homo sapiens, UniProt P13569, DEL508-508)
Construct: expressed in transfected cells
Test: Measurement of delF508-CFTR-HRP surface expression in CFBE41o- cells
Format: cell-based
Conditions: delF508-CFTR-HRP surface expression, CFBE41o- cells; read-out: DelF508-CFTR-HRP EC50
Answers are plain numbers, in nM.

Please review the entries below; each comes with its answer.
compound=O=S(=O)(Nc1ccc(Cl)c(-c2ccccc2Cl)n1)c1cccc(N2CC(O)C2)n1 measurement_unit=nM assay_value=2670
compound="Cc1ccccc1-c1nc(NS(=O)(=O)c2cccc(O[C@@H]3COC[C@@H]3O)n2)ccc1C(F)(F)F (single isomer, unassigned) [Example 296]" measurement_unit=nM assay_value=3220

## Input // returns reported EC50 for input Cc1cccc(C)c1-c1nc(NS(=O)(=O)c2cccc(N3CCn4ccnc4C3)n2)ccc1Cl
## Output 1950
